Assay: Octanol-water partition coefficient, log Kow of the compound by HPLC analysis
Format: physicochemical
Conditions: read-out: log KOW
Items are presented alongside their recorded logP.

# input // returns reported logP for input CCCCCCCCCC(=O)OCCc1ccc(O)c(O)c1 [HYDROXYTYROSOL DECANOATE]
# output > 3.3

# input # repeat for OCCc1ccc(O)c(O)c1 [HYDROXYTYROSOL]
# output 0.809

# input # repeat for CCCCCCCCCCCCCCCC(=O)OCCc1ccc(O)c(O)c1 [HYDROXYTYROSOL PALMITATE]
# output > 3.3

# input # repeat for CCCCC/C=C\C/C=C\CCCCCCCC(=O)OCCc1ccc(O)c(O)c1
# output > 3.3
